- protocol.details: In vivo metabolism of [14C]COMPOUND I in Sprague-Dawley rats, single oral 5 mg/kg dose
- Set-up: species or system rat
- study.conditions: female, Sprague-Dawley, rat, brain and plasma, po, 5 mg/kg; read-out: Brain/Plasma COMPOUND I Ratio
observation.type: Kp at 1 h
# respond with the number and nothing more

What Kp at 1 h value was documented for this compound, COc1cc(N2CCN(C3CCN(c4ccc(F)c5cccnc45)CC3)CC2)c2ncccc2c1 [COMPOUND I] ?
0.77

---

- protocol.details: In vivo metabolism of [14C]COMPOUND I in Sprague-Dawley rats, single oral 5 mg/kg dose
- Set-up: species or system rat
- study.conditions: male, Sprague-Dawley, rat, brain and plasma, po, 5 mg/kg; read-out: Brain/Plasma COMPOUND I Ratio
observation.type: Kp at 3 h
Keep it simple and answer with nothing but the number.

Tell me the measured Kp at 3 h of COc1cc(N2CCN(C3CCN(c4ccc(F)c5cccnc45)CC3)CC2)c2ncccc2c1 [COMPOUND I] , please.
0.54

---

- system.tested: human 5-HT1A receptor (Homo sapiens)
- Sequence (P08908 whole entry): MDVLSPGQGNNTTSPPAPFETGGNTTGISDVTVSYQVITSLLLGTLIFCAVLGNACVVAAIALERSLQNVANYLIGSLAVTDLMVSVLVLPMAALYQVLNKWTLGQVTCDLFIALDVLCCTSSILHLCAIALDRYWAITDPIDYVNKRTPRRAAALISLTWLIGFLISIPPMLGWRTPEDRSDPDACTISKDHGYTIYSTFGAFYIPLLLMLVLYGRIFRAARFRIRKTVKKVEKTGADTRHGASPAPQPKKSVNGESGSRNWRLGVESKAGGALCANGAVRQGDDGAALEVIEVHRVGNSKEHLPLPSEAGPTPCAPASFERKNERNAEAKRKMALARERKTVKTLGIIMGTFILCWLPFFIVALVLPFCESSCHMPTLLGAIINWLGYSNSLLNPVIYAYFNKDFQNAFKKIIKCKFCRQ
- protocol.details: Forskolin-induced adenylate cyclase (cAMP) functional assay in h5-HT1A.CHO cells
- study.conditions: decrease of forskolin-induced cAMP; read-out: EC50 value for in vitro agonist activity
- Procedure: A Ki value is reported. The in vitro functional activity of the compounds of this invention is determined by measuring the effect of the compound on forskolin-induced adenylate cyclase activity in the same cell line. 5-HT1A agonists, such as the full agonist 8-OH-DPAT, inhibit forskolin-induced adenylate cyclase activity, as measured by a reduction in cAMP levels. […] This percent is expressed as an Emax value. […]
Structures can show the parent of a compound that is named as a salt.
observation.type: pEC50
Here pEC50 is given on a logarithmic scale as minus log10 of the concentration in mol/L.

Look up pEC50 for this molecule: Oc1cc(N2CCN(C3CCN(c4ccc(F)c5cccnc45)CC3)CC2)c2ncccc2c1 [Metabolite M21, trihydrochloride]
9.41

---

- protocol.details: in vitro
- study.conditions: male, beagle, dog, microsomes
observation.type: half-life at 1 μM (min)
Give the number; min is assumed, so skip it.

What half-life at 1 μM value was documented for this compound, COc1cc(N2CCN(C3CCN(c4ccc(F)c5cccnc45)CC3)CC2)c2ncccc2c1 [COMPOUND I] ?
13

---

- protocol.details: In vivo metabolism of [14C]COMPOUND I in Sprague-Dawley rats, single oral 5 mg/kg dose
- Design: species or system rat
- study.conditions: Sprague-Dawley, rat; female rats, 1 hr, 5 mg/kg oral; mean brain radioactivity x percentage of COMPOUND I in pooled sample; read-out: Brain COMPOUND I Concentrations
- Protocol: Dose preparation, animal dosing, and specimen collection were performed at Wyeth Research, Collegeville, Pa. The vehicle contained 2% (w/v) polysorbate 80, NF and 0.5% (w/v) methylcellulose (4000 cps) in water. […] Three pre- and post-dose aliquots (100 μL) were taken for the determination of radiochemical purity, drug and radioactivity concentrations and specific activity (see below). […]
observation.type: concentration at 1 hr (ng/g)
Kindly provide the numeric value in ng/g only, without the unit symbol.

Form field: reported concentration at 1 hr of COc1cc(N2CCN(C3CCN(c4ccc(F)c5cccnc45)CC3)CC2)c2ncccc2c1 [COMPOUND I]
106
